# ASSAY TARGET: T1, CRF2R
# T1 sequence (Q13324 whole entry, species assumed, looked up): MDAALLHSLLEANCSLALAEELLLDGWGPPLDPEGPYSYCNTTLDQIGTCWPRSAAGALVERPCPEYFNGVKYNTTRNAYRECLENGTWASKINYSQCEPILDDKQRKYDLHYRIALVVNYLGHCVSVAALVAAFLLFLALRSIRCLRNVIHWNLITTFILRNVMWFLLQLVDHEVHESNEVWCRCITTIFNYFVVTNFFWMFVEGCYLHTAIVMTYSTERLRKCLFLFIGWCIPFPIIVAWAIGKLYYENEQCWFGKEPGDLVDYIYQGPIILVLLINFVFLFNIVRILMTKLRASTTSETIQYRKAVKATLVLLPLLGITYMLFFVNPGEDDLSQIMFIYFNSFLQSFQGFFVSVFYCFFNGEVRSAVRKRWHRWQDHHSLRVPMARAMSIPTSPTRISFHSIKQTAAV
# MEASUREMENT DESCRIPTION: cell-based or functional assay
Record form. Attribute: CRF2R EC50. Fill in for each entry.
Answers are plain numbers, in nM.

BINDER	UNITS	CRF2R EC50
ZGPPISIDLPYHLLRKVIEIEKQEKEKQQAANNALLLATI (C-terminal amide) [SEQ ID NO 313]	nM	11.1
ZGPPISIDLPIILLRKVIEIEKQEKEKQQAANNARLLARI (C-terminal amide) [SEQ ID NO 295]	nM	55

For the next question, use this binder.
Which measured CRF2R EC50 value corresponds to ZGPPISIDVPYQLLRKVIEIEKQEKEKQQAANNARLLDTI (C-terminal amide) [SEQ ID NO 374] ? 15.8
